# Test system: SK-HEP1
# test-description: Cytotoxicity against human SK-HEP1 cells assessed as decrease in cell viability incubated for 24 hrs by CCK-8 assay
# Assay type: functional, cell-based
# setup-conditions: SK-HEP1, 24 h
value-kind: IC50 (µM)

[
  {
    "structure-notation": "COc1cccc2c1C(=O)c1c(O)c3c(c(O)c1C2=O)C[C@@](O)(C(=O)CO)C[C@@H]3O[C@H]1C[C@H](N)[C@H](O)[C@H](C)O1",
    "readout-number": 0.028
  },
  {
    "structure-notation": "Nc1ccn([C@@H]2O[C@H](CO)[C@@H](O)C2(F)F)c(=O)n1",
    "readout-number": 3.67
  }
]
